FYI, the data here is from patent US9435795B2.

# tgt: horseradish peroxidase (HRP) (Armoracia rusticana)
# Construct: purchased VMSI (Ventana Medical Systems, Inc.) 760-500: 253-4290, 253-4292 and 253-4293
# Sequence (P00433 31-338): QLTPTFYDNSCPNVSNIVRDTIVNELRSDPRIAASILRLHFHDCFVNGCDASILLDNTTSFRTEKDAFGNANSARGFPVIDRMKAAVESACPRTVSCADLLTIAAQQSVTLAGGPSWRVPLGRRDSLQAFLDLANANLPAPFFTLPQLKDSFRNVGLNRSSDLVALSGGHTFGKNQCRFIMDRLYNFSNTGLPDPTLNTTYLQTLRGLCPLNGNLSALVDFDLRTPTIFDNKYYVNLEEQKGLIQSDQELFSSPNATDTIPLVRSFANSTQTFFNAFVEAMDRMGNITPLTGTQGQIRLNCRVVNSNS
# assayText: Plate assay: kinetic screening of enhancers of HRP-mediated DAB oxidation (ultraView Detection Kit, OD 455 nm)
# Assay type: biochemical
# runConditions: enhancer 50 mM; no enhancer 18.50; (sat) = reaction rate saturated by start of UV-VIS analysis
Binary call on Vmax (apparent, HRP-oxidized DAB) with cut-off 70 mOD/min: strictly below means TRUE, and equality or higher means FALSE.

Exam item: Strictly below 70 mOD/min in Vmax (apparent, HRP-oxidized DAB)? Oc1ccccn1 [2-Hydroxypyridine]
Marked response: TRUE

Exam item: Strictly below 70 mOD/min in Vmax (apparent, HRP-oxidized DAB)? N[C@@H](Cc1c[nH]cn1)C(=O)O
Marked response: TRUE

Exam item: Strictly below 70 mOD/min in Vmax (apparent, HRP-oxidized DAB)? [O-][n+]1cccnc1 [Pyrimidine-N-oxide]
Marked response: FALSE

Exam item: Strictly below 70 mOD/min in Vmax (apparent, HRP-oxidized DAB)? Oc1ncccn1 [2-Hydroxypyrimidine]
Marked response: FALSE

Exam item: Strictly below 70 mOD/min in Vmax (apparent, HRP-oxidized DAB)? Cc1c[nH]c(=O)[nH]c1=O
Marked response: FALSE

Exam item: Strictly below 70 mOD/min in Vmax (apparent, HRP-oxidized DAB)? c1cocn1
Marked response: TRUE

Exam item: Strictly below 70 mOD/min in Vmax (apparent, HRP-oxidized DAB)? N[C@@H](Cc1c[nH]c2ccccc12)C(=O)O
Marked response: TRUE

Exam item: Strictly below 70 mOD/min in Vmax (apparent, HRP-oxidized DAB)? Nc1cc[nH]c(=O)n1
Marked response: TRUE

Exam item: Strictly below 70 mOD/min in Vmax (apparent, HRP-oxidized DAB)? O=C1CC(=O)NC(=S)N1
Marked response: TRUE

Exam item: Strictly below 70 mOD/min in Vmax (apparent, HRP-oxidized DAB)? c1cncnc1
Marked response: FALSE
